All figures here come from paper PMC7819943.

Biological target: OsSMF1 (Oryza sativa, UniProt Q6ZLB0 1-436)
Sequence: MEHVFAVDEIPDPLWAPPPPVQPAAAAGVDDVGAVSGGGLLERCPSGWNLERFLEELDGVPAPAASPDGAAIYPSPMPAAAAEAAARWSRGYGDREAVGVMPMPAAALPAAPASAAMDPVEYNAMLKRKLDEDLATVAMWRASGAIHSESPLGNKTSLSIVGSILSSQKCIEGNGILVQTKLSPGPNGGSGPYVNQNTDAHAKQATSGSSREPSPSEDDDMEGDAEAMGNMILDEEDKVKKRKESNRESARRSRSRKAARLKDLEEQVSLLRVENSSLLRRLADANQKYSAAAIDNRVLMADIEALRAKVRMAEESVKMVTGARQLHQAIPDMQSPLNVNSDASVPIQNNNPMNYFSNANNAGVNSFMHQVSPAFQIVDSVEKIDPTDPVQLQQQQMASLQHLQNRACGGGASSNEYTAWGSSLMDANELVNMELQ
Test: protein-binding microarray (RPBM); PBS, 2% BSA, 51.3 ng/ul salmon testes DNA, 50 uM zinc acetate, 200 nM TF, 25 C, 1 h; high values mean tight binding
Details: protein: recombinant; tags: N-terminal polyhistidine and DsRed monomer fusion (pET32a); chain copies: 2; label: CyDye5-dUTP incorporated in the synthesized complementary strand; 3' TTTTT single-stranded linker to array surface; dsDNA, one strand shown
In all, about 39,000 sequences were measured (“fluorescence intensity (a.u.)”: median about 4,300, highest 2% from about 39,000 on). What follows is part of a selection rich in the highest values, with near analogues and random picks from the rest.
Kindly state binding signal for each of the entries shown.

Prompt: Give binding signal for the following sequence: AGCTAGCTAGCTAACTAGTAAGGAGGTACACGTAGGTAGCCGGAGTCACCTAGTGCAG
Response: 6960 fluorescence intensity (a.u.)

Prompt: Give binding signal for the following sequence: GGTTGTTCTAACAAATTGTTTATAAAACAATTTGATTTTGCGGAGTCACCTAGTGCAG
Response: 3570 fluorescence intensity (a.u.)

Prompt: Give binding signal for the following sequence: CGTGTGTAACTTTGGAACCTGCCACGGGAGAGCGAATTCCCGGAGTCACCTAGTGCAG
Response: 25500 fluorescence intensity (a.u.)

Prompt: Give binding signal for the following sequence: CGCTGCTGCCGTCACAGAAGGTGCTGACATGGCCTGGGGTCGGAGTCACCTAGTGCAG
Response: 7520 fluorescence intensity (a.u.)

Prompt: Give binding signal for the following sequence: GAGTGGAGAAGGCGCGCCACCGTCGCTAGAGCCGATGCTGCGGAGTCACCTAGTGCAG
Response: 47700 fluorescence intensity (a.u.)

Prompt: Give binding signal for the following sequence: CGCCGAGCTGCCACGCTCGCGTCGCGTCCAGATGCGCGCGCGGAGTCACCTAGTGCAG
Response: 3680 fluorescence intensity (a.u.)

Prompt: Give binding signal for the following sequence: GCAACAGTGTTATGCAACAGTGTCATTCAGTCTCTACACACGGAGTCACCTAGTGCAG
Response: 32000 fluorescence intensity (a.u.)

Prompt: Give binding signal for the following sequence: CGCCGCTGCCGCCAAACCGTCGGTGGAGAAGGCCTACCGGCGGAGTCACCTAGTGCAG
Response: 59200 fluorescence intensity (a.u.)

Prompt: Give binding signal for the following sequence: CCAACCCATCTCCACCGTCCATCTCCATCCGACGCCTCCCCGGAGTCACCTAGTGCAG
Response: 24300 fluorescence intensity (a.u.)

Prompt: Give binding signal for the following sequence: GTGGTGCTACAGTAAATATTTGCTAATGATAGATTAATTACGGAGTCACCTAGTGCAG
Response: 7300 fluorescence intensity (a.u.)

Prompt: Give binding signal for the following sequence: GCGCCGTCGTCGTCGCTGCCGTGGCGCCGCCGCGGCCACCCGGAGTCACCTAGTGCAG
Response: 6800 fluorescence intensity (a.u.)

Prompt: Give binding signal for the following sequence: AAATACATCCAAGAACACAATATATTCCAATATTTTGTCACGGAGTCACCTAGTGCAG
Response: 34500 fluorescence intensity (a.u.)

Prompt: Give binding signal for the following sequence: ATGTCGTAGCTTTTAATTATATACTACTATAAATTTGATTCGGAGTCACCTAGTGCAG
Response: 43700 fluorescence intensity (a.u.)

Prompt: Give binding signal for the following sequence: AGCCCGGCCCACCACGGGGTTTCCCTCTTCTCTAGGCCCGCGGAGTCACCTAGTGCAG
Response: 50600 fluorescence intensity (a.u.)

Prompt: Give binding signal for the following sequence: GCGGGCGCACGGGTGGGTGGTGTTCTGGGGCGGAGGCAGCCGGAGTCACCTAGTGCAG
Response: 3310 fluorescence intensity (a.u.)

Prompt: Give binding signal for the following sequence: CGAGAGCGAACGGCCGTCTGCCACGTCACTTTCGCCACCCCGGAGTCACCTAGTGCAG
Response: 41900 fluorescence intensity (a.u.)

Prompt: Give binding signal for the following sequence: GCCGCCGCCGCCGCCGCCGCTGACGAGGAGCAGAAGGTGGCGGAGTCACCTAGTGCAG
Response: 4310 fluorescence intensity (a.u.)

Prompt: Give binding signal for the following sequence: AACCTCCATCTCCCGCCCAGTGCCGCCGCGCCACGTCACCCGGAGTCACCTAGTGCAG
Response: 39100 fluorescence intensity (a.u.)

Prompt: Give binding signal for the following sequence: AAAATTATGTTGTCATTTTAATATATTTGAATAATACATTCGGAGTCACCTAGTGCAG
Response: 3560 fluorescence intensity (a.u.)

====

Target: OsSMF1 (Oryza sativa, UniProt Q6ZLB0 1-436)
Sequence: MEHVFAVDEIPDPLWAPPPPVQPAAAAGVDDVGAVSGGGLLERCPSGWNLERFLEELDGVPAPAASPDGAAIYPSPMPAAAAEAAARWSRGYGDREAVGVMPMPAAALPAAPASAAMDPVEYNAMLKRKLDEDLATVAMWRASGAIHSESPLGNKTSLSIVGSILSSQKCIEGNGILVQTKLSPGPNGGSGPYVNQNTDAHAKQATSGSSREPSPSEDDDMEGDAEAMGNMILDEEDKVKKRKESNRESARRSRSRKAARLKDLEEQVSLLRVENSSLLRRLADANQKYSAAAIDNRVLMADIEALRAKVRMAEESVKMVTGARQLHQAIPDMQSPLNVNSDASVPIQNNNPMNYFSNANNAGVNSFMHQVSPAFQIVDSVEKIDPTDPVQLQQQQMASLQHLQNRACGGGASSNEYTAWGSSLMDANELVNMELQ
Assay: protein-binding microarray (RPBM); PBS, 2% BSA, 51.3 ng/ul salmon testes DNA, 50 uM zinc acetate, 200 nM TF, 25 C, 1 h; high values mean tight binding
Details: protein: recombinant; tags: N-terminal polyhistidine and DsRed monomer fusion (pET32a); chain copies: 2; label: CyDye5-dUTP incorporated in the synthesized complementary strand; 3' TTTTT single-stranded linker to array surface; dsDNA, one strand shown
The full ranking holds about 39,000 sequences; the median of “fluorescence intensity (a.u.)” is about 4,300, and the highest 2% start at about 39,000. The sample as a whole holds a higher share of the highest values than the screen did.
Quantity Name: binding signal

Prompt: Give binding signal for the following sequence: TTTTACATGATTGGATGACAAAGCCTATTTCGTTTTGTTGCGGAGTCACCTAGTGCAG
Response: 5400 fluorescence intensity (a.u.)

Prompt: Give binding signal for the following sequence: CTACTGACACGTAGGTGCCACCATGGCATGCCACGTCAGCCGGAGTCACCTAGTGCAG
Response: 61500 fluorescence intensity (a.u.)

Prompt: Give binding signal for the following sequence: CATCCCTGGTGCTCTTGGTCTCTTGGCAGCTGTGGAAGGACGGAGTCACCTAGTGCAG
Response: 43000 fluorescence intensity (a.u.)

Prompt: Give binding signal for the following sequence: AGTGGCAGGGGTGTGGGGATTGCCGGCTTGCCGCGGAGGACGGAGTCACCTAGTGCAG
Response: 3530 fluorescence intensity (a.u.)

Prompt: Give binding signal for the following sequence: GCCACGTAGGTGCCATGTGGCACCACGTCAGCAAAATTGCCGGAGTCACCTAGTGCAG
Response: 49100 fluorescence intensity (a.u.)

Prompt: Give binding signal for the following sequence: TAGGCCCACACCTAGTCAGCTCAATCGAAATACAACCCACCGGAGTCACCTAGTGCAG
Response: 3450 fluorescence intensity (a.u.)

Prompt: Give binding signal for the following sequence: TTTTATTTCTACTGCCACGTAGGTGCCACGTCAACGCCACCGGAGTCACCTAGTGCAG
Response: 49800 fluorescence intensity (a.u.)

Prompt: Give binding signal for the following sequence: ACCTTCTAGACAAGGGTATGATGACATGTACCGATCCCAACGGAGTCACCTAGTGCAG
Response: 6680 fluorescence intensity (a.u.)

Prompt: Give binding signal for the following sequence: GGCAGGACGGCAGGAGGCCTGTTCGCTTGAGGTGTCTAGCCGGAGTCACCTAGTGCAG
Response: 39800 fluorescence intensity (a.u.)

Prompt: Give binding signal for the following sequence: GTATTGCTGCTGTGATGGAACAAGCTCAGCAGGGTGACATCGGAGTCACCTAGTGCAG
Response: 3290 fluorescence intensity (a.u.)

Prompt: Give binding signal for the following sequence: TAGGCAAATTACATGGCATGTGCCACGTCGTTGTTGCACCCGGAGTCACCTAGTGCAG
Response: 16500 fluorescence intensity (a.u.)

Prompt: Give binding signal for the following sequence: GTAGGTGACATGTGTGGTGTCACACTGACTCAGCCATCACCGGAGTCACCTAGTGCAG
Response: 10600 fluorescence intensity (a.u.)

Prompt: Give binding signal for the following sequence: CGCTGCTGAGTGCTGACTCCTTCGCCCTCCTCCTCACTTTCGGAGTCACCTAGTGCAG
Response: 7650 fluorescence intensity (a.u.)

Prompt: Give binding signal for the following sequence: TTGATAATTACTCTTACGTCCCTCACCCTATGCTCCTGTGCGGAGTCACCTAGTGCAG
Response: 3440 fluorescence intensity (a.u.)

Prompt: Give binding signal for the following sequence: AACAGCTCAATTAATTAATCGCCCACACCGAAGCGCGCACCGGAGTCACCTAGTGCAG
Response: 39800 fluorescence intensity (a.u.)

Prompt: Give binding signal for the following sequence: TTAGACACGTAGGTGCCATGTCAGCCAAAACCACCGAGGGCGGAGTCACCTAGTGCAG
Response: 17100 fluorescence intensity (a.u.)

Prompt: Give binding signal for the following sequence: TGCGAGGTGGTGGTGATTGCTTCGTCGGCTGTTGATTTCTCGGAGTCACCTAGTGCAG
Response: 3300 fluorescence intensity (a.u.)

Prompt: Give binding signal for the following sequence: TTATTTCTACTGCCACGTAGGTGCCACGTCAACGCCACGTCGGAGTCACCTAGTGCAG
Response: 37400 fluorescence intensity (a.u.)

Prompt: Give binding signal for the following sequence: TCCGGAGAGTTGACGCAGCGTCAACCGGGTCCGTCGTTCTCGGAGTCACCTAGTGCAG
Response: 3800 fluorescence intensity (a.u.)
